Molecular target: EGFR L858R/T790M/C797S (Homo sapiens, UniProt P00533, C797S/L858R/T790M)
Sequence (P00533 25-1210 T790M/C797S/L858R): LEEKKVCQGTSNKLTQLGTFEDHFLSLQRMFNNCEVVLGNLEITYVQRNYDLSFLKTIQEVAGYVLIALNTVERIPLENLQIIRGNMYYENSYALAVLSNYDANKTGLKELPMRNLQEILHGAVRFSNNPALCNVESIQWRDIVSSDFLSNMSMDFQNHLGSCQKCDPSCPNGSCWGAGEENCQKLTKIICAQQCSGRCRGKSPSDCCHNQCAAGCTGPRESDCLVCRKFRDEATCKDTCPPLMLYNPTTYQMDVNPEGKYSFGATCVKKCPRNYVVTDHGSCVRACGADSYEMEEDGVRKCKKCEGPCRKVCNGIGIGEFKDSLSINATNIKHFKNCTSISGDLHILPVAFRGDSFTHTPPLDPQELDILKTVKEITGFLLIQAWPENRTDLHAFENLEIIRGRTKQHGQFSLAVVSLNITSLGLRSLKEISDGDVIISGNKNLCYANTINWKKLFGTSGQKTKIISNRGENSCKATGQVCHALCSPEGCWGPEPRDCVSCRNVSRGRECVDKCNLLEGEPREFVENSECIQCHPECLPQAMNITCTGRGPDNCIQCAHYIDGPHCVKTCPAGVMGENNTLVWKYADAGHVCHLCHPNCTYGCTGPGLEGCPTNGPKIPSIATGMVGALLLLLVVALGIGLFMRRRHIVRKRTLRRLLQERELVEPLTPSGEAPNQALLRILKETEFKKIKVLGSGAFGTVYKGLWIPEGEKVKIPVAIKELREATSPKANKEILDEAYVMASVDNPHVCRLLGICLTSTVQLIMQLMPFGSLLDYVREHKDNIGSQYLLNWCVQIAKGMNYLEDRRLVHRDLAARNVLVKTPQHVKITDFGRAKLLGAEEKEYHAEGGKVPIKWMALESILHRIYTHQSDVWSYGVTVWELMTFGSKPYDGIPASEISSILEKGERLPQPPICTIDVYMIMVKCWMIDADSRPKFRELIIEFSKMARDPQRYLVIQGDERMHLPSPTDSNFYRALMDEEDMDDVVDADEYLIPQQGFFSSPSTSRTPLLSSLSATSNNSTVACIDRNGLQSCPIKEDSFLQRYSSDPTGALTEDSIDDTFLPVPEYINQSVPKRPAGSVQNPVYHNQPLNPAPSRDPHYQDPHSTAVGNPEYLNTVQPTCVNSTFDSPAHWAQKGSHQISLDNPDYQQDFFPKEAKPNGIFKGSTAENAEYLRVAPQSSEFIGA
Experiment: Biochemical EGFR kinase assay (Lance Ultra TR-FRET), triple mutant L858R/T790M/C797S
Conditions: Km ATP; read-out: IC50 L858R/T790M/C797S, Km ATP
Experimental: Biochemical EGFR kinase assays were conducted using Lance Ultra time-resolved fluorescence resonance energy transfer (TR-FRET) technology from Perkin-Elmer. […] Each kinase reactions were incubated at room temperature for 1 hour and then stopped by the addition of 4 μL of stop solution (10 mM EDTA). […] After 60 minutes incubation at room temperature the LANCE signal was measured on an EnVision Multilabel Reader (Perkin-Elmer). […]
Criterion: IC50 strictly under 0.4 nM. Met: Satisfied. Not met: Not satisfied.

{"chemical_string": "Cc1nn(CC(F)(F)F)cc1-c1nccc(Nc2cc(N[C@H]3CC[C@@](C)(O)CC3)c(-c3cc(C(F)(F)F)n(C)n3)cn2)n1", "group_label": "Not satisfied"}
{"chemical_string": "C[C@]1(O)CC[C@@H](Nc2nc(Nc3ccnc(-c4cnn(CC(F)F)c4)c3)ncc2-c2ccn(C(F)F)n2)CC1", "group_label": "Satisfied"}

stdin: Please determine if C[C@]1(O)CC[C@@H](Nc2nc(Nc3ccnc(-c4cnn(S(=O)(=O)C5CC5)c4)c3)ncc2-c2ccn(CCC(F)(F)F)n2)CC1 is below 0.4 nM in terms of IC50.
stdout: Not satisfied

stdin: Does this compound meet the criterion IC50 < 0.4 nM? O=S(=O)(C1CC1)n1cc(-c2ncc(F)c(Nc3cc(N[C@H]4CC[C@@H](CCO)CC4)c(-c4ccn(CC(F)F)n4)cn3)n2)cn1
stdout: Not satisfied

stdin: IC50 strictly < 0.4 nM for this compound? Cn1nc(-c2cnc(Nc3ccnc(-c4cnn(CC(F)F)c4)n3)cc2N[C@H]2CC[C@@H](CCO)CC2)cc1C(F)(F)F
stdout: Not satisfied

---

target: EGFR del19/C797S (Homo sapiens, UniProt P00533, C797S/DEL746-750); assay: Biochemical EGFR kinase assay (Lance Ultra TR-FRET), double mutant del19/C797S; conditions: Km ATP; read-out: IC50 del19/C797S (nM) Km ATP
Sequence (P00533 with tags, fused parts or gaps DEL746-750/C797S): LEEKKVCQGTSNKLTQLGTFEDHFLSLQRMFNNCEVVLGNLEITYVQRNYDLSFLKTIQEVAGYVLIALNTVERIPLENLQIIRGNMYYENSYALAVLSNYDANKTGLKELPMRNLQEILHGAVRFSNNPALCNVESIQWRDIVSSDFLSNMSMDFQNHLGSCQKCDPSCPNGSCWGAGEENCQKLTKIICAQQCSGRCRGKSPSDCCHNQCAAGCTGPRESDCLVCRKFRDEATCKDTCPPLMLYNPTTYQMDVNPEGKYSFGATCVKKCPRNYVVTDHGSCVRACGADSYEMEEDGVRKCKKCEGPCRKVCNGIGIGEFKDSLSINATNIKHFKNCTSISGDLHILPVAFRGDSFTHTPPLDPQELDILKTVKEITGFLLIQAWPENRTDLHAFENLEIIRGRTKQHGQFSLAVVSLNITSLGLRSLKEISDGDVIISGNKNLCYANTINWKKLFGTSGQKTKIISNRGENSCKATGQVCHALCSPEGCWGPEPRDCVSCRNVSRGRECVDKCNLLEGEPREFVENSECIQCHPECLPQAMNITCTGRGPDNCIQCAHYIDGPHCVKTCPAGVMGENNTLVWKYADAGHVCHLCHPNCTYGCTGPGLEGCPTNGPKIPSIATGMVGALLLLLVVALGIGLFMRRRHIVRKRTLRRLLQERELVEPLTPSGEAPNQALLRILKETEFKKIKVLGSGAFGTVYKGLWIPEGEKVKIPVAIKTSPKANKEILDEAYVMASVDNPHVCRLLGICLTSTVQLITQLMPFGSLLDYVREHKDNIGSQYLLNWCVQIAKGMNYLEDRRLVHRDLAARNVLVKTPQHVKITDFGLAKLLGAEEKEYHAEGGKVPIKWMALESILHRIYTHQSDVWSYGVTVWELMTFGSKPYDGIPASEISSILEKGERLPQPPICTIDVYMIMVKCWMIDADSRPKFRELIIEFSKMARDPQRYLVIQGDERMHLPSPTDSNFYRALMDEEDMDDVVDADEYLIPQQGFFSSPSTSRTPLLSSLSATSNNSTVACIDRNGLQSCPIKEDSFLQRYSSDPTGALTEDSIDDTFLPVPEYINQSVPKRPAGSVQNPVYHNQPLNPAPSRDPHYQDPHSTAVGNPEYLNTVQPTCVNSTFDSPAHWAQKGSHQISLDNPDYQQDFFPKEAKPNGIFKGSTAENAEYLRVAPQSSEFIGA
Binning of IC50 into classes: lo = under 0.9 nM, med = from 0.9 nM up to 20 nM, hi = 20 nM and over

Below are worked cases with known answers.
{"compound": "CC(C)(O)[C@H]1CC[C@@H](Nc2cc(Nc3ccnc(-c4cnn(CC(F)F)c4)n3)ncc2-c2ccn(C(F)F)n2)CC1", "group_label": "hi"}
{"compound": "CN[C@H]1CC[C@@H](Nc2cc(Nc3ccnc(-c4cnn(S(=O)(=O)C5CC5)c4)n3)ncc2-c2ccn(C)n2)CC1", "group_label": "lo"}
{"compound": "CN(C)CC1CCC(Nc2cc(Nc3ccnc(-c4cnn(S(=O)(=O)C5CC5)c4)n3)ncc2-c2ccn(C3COC3)n2)CC1 (stereo not shown)", "group_label": "lo"}
{"compound": "O=S(=O)(C1CC1)n1cc(-c2nccc(Nc3cc(N[C@H]4CC[C@](O)(CO)CC4)c(-c4ccn(C(F)F)n4)cn3)n2)cn1", "group_label": "lo"}
{"compound": "Cc1cc(-c2cnc(Nc3ccnc(-c4cnn(S(=O)(=O)C5CC5)c4)n3)cc2N[C@H]2CC[C@@](C)(O)CC2)nn1C", "group_label": "lo"}
{"compound": "CC(C)(O)[C@H]1CC[C@@H](Nc2cc(Nc3ccnc(-c4cnn(S(=O)(=O)C5CC5)c4)n3)ncc2-c2ccn(CC(F)(F)F)n2)CC1", "group_label": "med"}
{"compound": "C[C@]1(O)CC[C@@H](Nc2cc(Nc3ccnc(-c4cnn(CC(F)F)c4)n3)ncc2-c2ccn(C(F)F)n2)CC1", "group_label": "med"}
{"compound": "O=S(=O)(C1CC1)n1cc(-c2nccc(Nc3cc(N[C@H]4CC[C@@H](NCC(F)F)CC4)c(-c4ccn(C(F)F)n4)cn3)n2)cn1", "group_label": "lo"}
{"compound": "CC(C)Nc1cc(Nc2ccnc(-c3cnn(S(=O)(=O)C4CC4)c3)n2)ncc1-c1ccn(CCC(F)(F)F)n1", "group_label": "hi"}
{"compound": "C[C@]1(O)CC[C@H](CNc2cc(Nc3ccnc(-c4cnn(S(=O)(=O)C5CC5)c4)n3)ncc2-c2ccn(C(F)F)n2)CC1", "group_label": "med"}

stdin: Just checking, what class would you give CC(C)(O)[C@H]1CC[C@@H](Nc2cc(Nc3ccnc(-c4cnn(S(=O)(=O)C5CC5)c4)n3)ncc2-c2ccn(CCC(F)(F)F)n2)CC1 here?
stdout: hi

stdin: State the band of O=S(=O)(C1CC1)n1cc(-c2nccc(Nc3cc(N[C@H]4CC[C@@H](F)CC4)c(-c4ccn(CC(F)(F)F)n4)cn3)n2)cn1
stdout: hi

stdin: Which of the defined bands does the recorded IC50 of CN(CC(F)F)C(=O)[C@H]1CC[C@@H](Nc2cc(Nc3ccnc(-c4cnn(S(=O)(=O)C5CC5)c4)n3)ncc2-c2ccn(C)n2)CC1 sit within?
stdout: med

stdin: Band of Cn1nc(-c2cnc(Nc3ccnc(-c4cnn(S(=O)(=O)C5CC5)c4)n3)cc2N[C@H]2CC[C@@H](F)CC2)cc1C(F)(F)F ?
stdout: hi

stdin: Form: Item = CN(C)C[C@H]1C[C@H](CNc2cc(Nc3ccnc(-c4cnn(S(=O)(=O)C5CC5)c4)n3)ncc2-c2ccn(C)n2)C1 ; Class = ?
stdout: med

stdin: Which bin, given its IC50, does CC(Nc1cc(Nc2ccnc(-c3cnn(S(=O)(=O)C4CC4)c3)n2)ncc1-c1ccn(C(F)F)n1)C(F)F (stereo not shown) occupy?
stdout: hi

stdin: Hi, small favor: classify CC(C)(CO)Cn1cc(-c2nccc(Nc3cc(N[C@H]4CC[C@@](C)(O)CC4)c(-c4ccn(C(F)F)n4)cn3)n2)cn1 by its IC50 when you get a moment.
stdout: hi

stdin: Form field 'band' for CN(C)S(=O)(=O)n1cc(-c2nccc(Nc3cc(N[C@H]4CC[C@@](C)(O)CC4)c(-c4ccn(C(F)F)n4)cn3)n2)cn1
stdout: med

stdin: For the record COCn1ccc(-c2cnc(Nc3ccnc(-c4cnn(S(=O)(=O)C5CC5)c4)n3)cc2N[C@H]2CC[C@@H](C(C)(C)O)CC2)n1 , report the class its IC50 corresponds to.
stdout: med

Taken from patent US12258327B2.
